COMPOUND | melting point
C=CCOc1nc(N)nc(-c2ccccc2)c1-c1ccc(=O)n(C(C)C)n1 | 130.5 to 132.5 °C
CC(C)n1nc(-c2cnc(N)nc2-c2cc(F)cc(F)c2)ccc1=O | 234 °C
CC(C)n1nc(-c2c(OCC(=O)OC(C)(C)C)nc(N)nc2-c2ccccc2)ccc1=O | 160 to 162 °C
CC(C)n1nc(-c2c(-c3ccccc3)nc(N)nc2S(C)(=O)=O)ccc1=O | 210 to 211 °C
CC(C)n1nc(-c2cnc(NC(=O)c3ccc(C(F)(F)F)cc3)nc2-c2ccccc2)ccc1=O | 160 to 163 °C
CC(C)n1nc(-c2cnc(N)nc2-c2ccccc2O)ccc1=O (hydrate or solvate) | 241 °C
CC(C)n1nc(-c2c(N)nc(N)nc2-c2ccccc2)ccc1=O | 258 to 260 °C
CCCCOc1ccc(-c2nc(N)ncc2-c2ccc(=O)n(C(C)C)n2)cc1 | 143 °C
CCCOc1nc(N)nc(-c2ccccc2)c1-c1ccc(=O)n(C(C)C)n1 | 127.5 to 129 °C
CC(C)n1nc(-c2c(-c3ccccc3)nc(N)nc2N2CCCCC2)ccc1=O | 221 to 223 °C
CC(C)n1nc(-c2c(OCCN3C(=O)c4ccccc4C3=O)nc(N)nc2-c2ccccc2)ccc1=O | 231.5 to 232.5 °C
CCNc1nc(N)nc(-c2ccccc2)c1-c1ccc(=O)n(C(C)C)n1 | 208 to 209 °C
CC(C)n1nc(-c2c(OCC(=O)O)nc(N)nc2-c2ccccc2)ccc1=O | 215 to 217 °C
COc1nc(N)nc(-c2ccc([S+](C)[O-])cc2)c1-c1ccc(=O)n(C(C)C)n1 (centres unmarked) | 127 to 130 °C
Cc1nc(N)nc(-c2ccccc2)c1-c1ccc(=O)n(C(C)C)n1 | 213 to 215 °C
CC(C)n1nc(-c2cnc(NC(=O)C(C)(C)C)nc2-c2ccccc2)ccc1=O | 138 to 141 °C
COCCOc1nc(N)nc(-c2ccccc2)c1-c1ccc(=O)n(C(C)C)n1 | 128 to 130 °C
COc1ccc(-c2nc(N)ncc2-c2ccc(=O)n(C)n2)cc1F | 245 °C
CC(C)n1nc(-c2c(NC3CC3)nc(N)nc2-c2ccccc2)ccc1=O | 237 to 239 °C
COc1ccc(C(=O)Nc2ncc(-c3ccc(=O)n(C(C)C)n3)c(-c3ccccc3)n2)cc1 | 171 to 174 °C
CC(C)n1nc(-c2c(OCC(N)=O)nc(N)nc2-c2ccccc2)ccc1=O | 257 to 261 °C
CC(C)n1nc(-c2c(-c3ccccc3)nc(N)nc2N2CCNCC2)ccc1=O | 254 to 256 °C
CCn1nc(-c2cnc(N)nc2-c2ccccc2)ccc1=O | 255 to 256 °C
COCC(=O)Nc1ncc(-c2ccc(=O)n(C(C)C)n2)c(-c2ccccc2)n1 | 94 to 97 °C
CC(C)C(=O)Nc1ncc(-c2ccc(=O)n(C(C)C)n2)c(-c2ccccc2)n1 | 145 to 147 °C
Nc1ncc(-c2ccc(=O)[nH]n2)c(-c2cccnc2)n1 | 256 °C
COc1nc(N)nc(-c2ccc(F)cc2)c1-c1ccc(=O)n(C(C)C)n1 | 207 to 209 °C
COc1ccccc1-c1nc(N)ncc1-c1ccc(=O)[nH]n1 | 273 °C
COc1cccc(-c2nc(N)ncc2-c2ccc(=O)[nH]n2)c1 | 134 °C
CSc1nc(N)nc(-c2ccc(F)cc2)c1-c1ccc(=O)n(C(C)C)n1 | 232 to 234 °C
CC(C)n1nc(-c2cnc(N)nc2-c2ccc(F)c(F)c2)ccc1=O | 208 °C
Cn1nc(-c2cnc(N)nc2-c2ccco2)ccc1=O | 234 °C
Cn1nc(-c2cnc(N)nc2-c2cccc(O)c2)ccc1=O (hydrate or solvate) | 285 °C
CC(C)n1nc(-c2c(OCC(=O)N(C)C)nc(N)nc2-c2ccccc2)ccc1=O | 133 to 135.5 °C
Cc1nc(Nc2nc(N)nc(-c3ccccc3)c2-c2ccc(=O)n(C(C)C)n2)sc1C | 256 to 257.5 °C
